assaySystem: biotinylated truncated STAT6 (123-632)-avi (Homo sapiens)
runDescription: biochemical
Give measured IC50 for each item. Keep answers brief.

// query Recorded IC50 for CN(C)C(=O)c1cc2ccc(C3CCCCN(C(=O)Nc4cccc(C(N)=O)c4)C3)c(F)c2[nH]1 (centres unmarked) , please?
// result 10 to 100 µM

// query Recorded IC50 for CN1CCN(c2ccc(C3=CCCN(C(=O)CCn4ccnn4)C3)cc2Cl)CC1=O , please?
// result 10 to 100 µM

// query Recorded IC50 for O=C(CCn1ccnn1)N1CCC[C@H](c2ccc(-n3ccccc3=O)c(F)c2)C1 (single isomer, unassigned) , please?
// result 10 to 100 µM

// query Recorded IC50 for CNC(=O)c1ccc2c(c1)nc(-c1nc3ccc(F)cc3[nH]1)n2Cc1ccc(CN2CCOCC2)o1 , please?
// result 10 to 100 µM

// query Recorded IC50 for COc1ccccc1-c1cc(Cc2ccccn2)c(F)c(C2=CCCN(C(=O)CCn3ccnn3)C2)c1 , please?
// result 0.1 to 1 µM

----------
assaySystem: STAT6 (Homo sapiens)
Sequence (P42226 1-847): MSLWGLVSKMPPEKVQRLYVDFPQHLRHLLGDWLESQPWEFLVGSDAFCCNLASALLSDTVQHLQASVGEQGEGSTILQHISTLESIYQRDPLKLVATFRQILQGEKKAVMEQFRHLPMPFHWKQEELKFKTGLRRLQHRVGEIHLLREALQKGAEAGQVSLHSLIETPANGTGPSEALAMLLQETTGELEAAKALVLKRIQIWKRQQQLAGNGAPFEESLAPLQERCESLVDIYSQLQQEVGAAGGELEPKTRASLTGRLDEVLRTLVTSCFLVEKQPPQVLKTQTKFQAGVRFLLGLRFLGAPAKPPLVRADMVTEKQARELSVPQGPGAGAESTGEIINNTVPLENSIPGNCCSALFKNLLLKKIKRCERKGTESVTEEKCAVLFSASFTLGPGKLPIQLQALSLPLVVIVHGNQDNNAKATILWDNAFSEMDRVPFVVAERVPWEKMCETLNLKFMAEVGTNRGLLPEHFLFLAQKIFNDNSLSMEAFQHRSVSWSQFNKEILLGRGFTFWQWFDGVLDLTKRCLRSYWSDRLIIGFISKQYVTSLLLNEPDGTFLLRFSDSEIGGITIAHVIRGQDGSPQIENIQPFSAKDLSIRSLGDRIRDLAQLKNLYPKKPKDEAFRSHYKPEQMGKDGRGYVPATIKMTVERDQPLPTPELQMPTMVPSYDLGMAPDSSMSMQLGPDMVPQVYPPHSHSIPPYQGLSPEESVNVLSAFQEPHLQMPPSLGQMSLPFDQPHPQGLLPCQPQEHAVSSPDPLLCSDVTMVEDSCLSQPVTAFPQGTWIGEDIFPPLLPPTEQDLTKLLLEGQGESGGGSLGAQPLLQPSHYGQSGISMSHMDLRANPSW
runDescription: Phosphorylated STAT6 (pSTAT6) flow cytometry assay in human A549 cells
Format: cell-based
Parameters: endogenous in cells
runConditions: read-out: STAT6 IL4 pSTAT6 assay in A549 cells: Average IC50
measuredQuantity: IC50

// query Recorded IC50 for COc1ccccc1-c1cc(Cc2ccccn2)c(F)c(C2=CCCN(C(=O)CCn3ccnn3)C2)c1 , please?
// result 100 to 1000 nM
